target-under-test: T1, human LILRB2 expressed on cells (human, UniProt Q8N423 22-597)
T1 construct: In 293T cells it was expressed from pCMV3-LILRB2-GFP; also called CHO-LILRB2; Jurkat-LILRB2
T1 sequence (Q8N423 other isoform, or with tags, fused parts or gaps limits assumed): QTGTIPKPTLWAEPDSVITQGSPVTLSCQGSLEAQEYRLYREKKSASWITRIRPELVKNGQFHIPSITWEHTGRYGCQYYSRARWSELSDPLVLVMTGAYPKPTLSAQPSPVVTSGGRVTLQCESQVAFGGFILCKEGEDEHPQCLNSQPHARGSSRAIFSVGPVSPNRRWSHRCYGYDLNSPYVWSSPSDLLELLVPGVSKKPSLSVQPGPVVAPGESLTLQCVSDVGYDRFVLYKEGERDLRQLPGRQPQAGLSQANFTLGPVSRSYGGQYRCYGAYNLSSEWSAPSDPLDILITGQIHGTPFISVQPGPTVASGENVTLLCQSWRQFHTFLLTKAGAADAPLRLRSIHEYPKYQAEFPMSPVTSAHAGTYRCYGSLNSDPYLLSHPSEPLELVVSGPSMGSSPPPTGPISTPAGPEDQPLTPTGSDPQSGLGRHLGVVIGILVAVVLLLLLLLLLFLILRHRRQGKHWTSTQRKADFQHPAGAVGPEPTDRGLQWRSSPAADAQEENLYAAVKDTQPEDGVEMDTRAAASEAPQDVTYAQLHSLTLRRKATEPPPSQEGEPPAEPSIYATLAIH
experiment: flow cytometry on CHO-LILRB2 cells, non-linear fit of the curves of FIG. 26B
Overview of reported EC50 across a group of binders:
Give just the numeric value; µg/mL need not be written.

Inquiry: Given the binder D2M002-026 (antibody, V domains shown, Hit; also called clone #26) VH: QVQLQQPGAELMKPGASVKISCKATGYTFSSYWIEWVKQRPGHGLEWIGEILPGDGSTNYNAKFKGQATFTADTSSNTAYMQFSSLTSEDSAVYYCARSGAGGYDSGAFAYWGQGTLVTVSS VL: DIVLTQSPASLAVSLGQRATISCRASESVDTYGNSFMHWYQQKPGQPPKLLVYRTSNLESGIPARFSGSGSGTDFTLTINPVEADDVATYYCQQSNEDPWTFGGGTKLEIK , what is its reported EC50?
Reply text: 0.18
